The reported measurements were obtained from PubChem BioAssay (NCI).

System: MDA-MB-468 breast
test_description: NCI tumour cell line growth inhibition, 48 h
Each record here notes measured TGI.
Answer in µM, number only, no unit symbol.

The following compounds have reported results that may help.
{"columns": ["input_smiles", "reading_unit", "TGI"],
 "data": [
  ["O=C(NCCN1CCOCC1)c1cc2c(Oc3ccc(NC(=O)C4(C(=O)Nc5ccc(F)cc5)CC4)cc3)ccnc2[nH]1", "µM", 13.6],
  ["COc1ccc(/C(=C(\\c2ccccc2)[N+](=O)[O-])c2ccc(OCCN3CCCC3)cc2)cc1", "µM", 4.27]
]}

Next compound, TGI to be filled in.
Find TGI (MDA-MB-468 breast) for the entry O/N=C(\CSc1nnc(-c2c[nH]c3ccccc23)n1-c1ccccc1)c1ccc(Br)cc1 3.3
